System tested: T1, 4Ig-B7H3 (human, UniProt Q5ZPR3 27-461, limits assumed)
T1 construct: also called 4Ig-B73H3
T1 sequence (looked up): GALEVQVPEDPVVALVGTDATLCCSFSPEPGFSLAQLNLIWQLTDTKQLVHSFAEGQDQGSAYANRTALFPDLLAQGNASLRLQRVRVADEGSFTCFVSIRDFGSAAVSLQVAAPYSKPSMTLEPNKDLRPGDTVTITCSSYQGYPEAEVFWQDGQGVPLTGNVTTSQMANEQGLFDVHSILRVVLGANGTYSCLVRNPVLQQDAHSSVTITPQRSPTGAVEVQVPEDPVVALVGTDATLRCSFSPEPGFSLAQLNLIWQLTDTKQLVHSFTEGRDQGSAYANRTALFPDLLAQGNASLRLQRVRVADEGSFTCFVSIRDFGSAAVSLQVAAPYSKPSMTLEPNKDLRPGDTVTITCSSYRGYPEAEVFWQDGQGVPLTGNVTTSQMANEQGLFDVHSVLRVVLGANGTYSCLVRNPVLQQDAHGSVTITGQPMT
Assay comment: SPR (Biacore), scFv; antigen not given
koff for assorted binders
Provide the reading as a plain figure in s⁻¹.

[
  {
    "Binder": "hu8H9 5.1 scFv (scFv, not shown: FLAG and His tags) scFv: QVQLVQSGAEVVKPGASVKVSCKTSGYTFTNYDINWVRQRPGQGLEWIGWIFPGDDSTQYNEKFKGRVTMTTDTSTSTVYMELSSLRSEDTAVYFCARQTTGTWFAYWGQGTLVTVSSGGGGSGGGGSGGGGSEIVMTQSPATLSVSPGERVTLSCRASQSISDYLYWYQQKSHQAPRLLIKYASQSISGIPARFSGSGSGSEFTLTISSLQPEDFGVYYCQNGHSFPLTFGQGTKLELKR",
    "Unit spec": "s⁻¹",
    "koff": "9.84e-05"
  },
  {
    "Binder": "hu8H9 4.1 scFv (scFv, not shown: FLAG and His tags) scFv: QVQLVQSGAEVVKPGASVKVSCKASGYTFTNYDINWVRQRPEQGLEWIGWIFPGDGSTQYNEKFKGRVTMTTDTSTSTVYMELSSLRSEDTAVYFCARQTTATWFAYWGQGTLVTVSSGGGGSGGGGSGGGGSEIVMTQSPATLSVSPGERVTLSCRASQSISDYLHWYQQKSHQAPRLLIKYASQSISGIPARFSGSGSGSEFTLTISSLQPEDFGVYYCQNGHSFPLTFGQGTKLELKR",
    "Unit spec": "s⁻¹",
    "koff": 0.000557
  },
  {
    "Binder": "hu8H9 3.1 scFv (scFv, not shown: FLAG and His tags) scFv: QVQLVQSGAEVVKPGASVKLSCKTSGYTFTNYDINWVRQRPGQGLEWIGWIFPGDDSTQYNEKFKGKATLTTDTSTSTAYMELSSLRSEDTAVYFCARQTTGTWFAYWGQGTLVTVSSGGGGSGGGGSGGGGSEIVMTQSPATLSVSPGERVTLSCRASQSISDYLYWYQQKSHESPRLLIKYASQSISGIPARFSGSGSGSEFTLTINSVEPEDVGVYYCQNGHSFPLTFGQGTKLELKR",
    "Unit spec": "s⁻¹",
    "koff": "9.52e-05"
  }
]

Record request: koff value, item hu8H9 H3L3 scFv (scFv, also called parental hu8H9 H3L3; not shown: FLAG and His tags) scFv: QVQLVQSGAEVVKPGASVKLSCKASGYTFTNYDINWVRQRPEQGLEWIGWIFPGDGSTQYNEKFKGKATLTTDTSTSTAYMELSSLRSEDTAVYFCARQTTATWFAYWGQGTLVTVSSGGGGSGGGGSGGGGSEIVMTQSPATLSVSPGERVSLSCRASQSISDYLHWYQQKSHESPRLLIKYASQSISGIPARFSGSGSGSEFTLTINSVEPEDVGVYYCQNGHSFPLTFGQGTKLELKR
0.000919
